# target-system: Aldo-keto reductase family 1 member B1 (Homo sapiens)
# method: In vitro inhibitory activity towards partially purified human placenta aldose reductase

[
  {
    "compound": "O=C1NC(=O)C(N2C(=O)c3cccc4cccc(c34)C2=O)N1 (stereo unspecified)",
    "IC50, µM": 8
  }
]

###

The reader will find reported pIC50 values listed item by item below.
# target-system: Aldo-keto reductase family 1 member B1 (Bos taurus, UniProt P16116)
# method: In vitro inhibition of partially purified calf lens aldose reductase
pIC50: −log10 of the molar value.
experimental-endpoint: pIC50

[
  {
    "molecule": "O=C1NC(=O)C(c2ccccc2)(c2ccccc2)N1",
    "censoring-qualifier": "<",
    "observed-value": 4.00
  },
  {
    "molecule": "O=C1NC(=O)C2(CCCc3sccc32)N1 (configuration not stated)",
    "censoring-qualifier": "=",
    "observed-value": 4.00
  },
  {
    "molecule": "O=C1NC(=O)C2(CCOc3ccc(CN4CCCCC4)cc32)N1 (configuration not stated)",
    "censoring-qualifier": "=",
    "observed-value": 4.00
  },
  {
    "molecule": "O=C1NC(=O)[C@@]2(CCOc3ccc(Cl)cc32)O1",
    "censoring-qualifier": "=",
    "observed-value": 7.00
  },
  {
    "molecule": "O=C1NC(=O)C2(CCSc3c(Cl)cccc32)N1 (configuration not stated)",
    "censoring-qualifier": "=",
    "observed-value": 4.00
  },
  {
    "molecule": "O=C1NC(=O)C2(CCCc3ncccc32)N1 (configuration not stated)",
    "censoring-qualifier": "=",
    "observed-value": 5.00
  },
  {
    "molecule": "O=C1CC2(CCCc3ccccc32)C(=O)N1 (configuration not stated)",
    "censoring-qualifier": "<",
    "observed-value": 4.00
  },
  {
    "molecule": "O=C1NCNC12CCCc1ccccc12 (configuration not stated)",
    "censoring-qualifier": "<",
    "observed-value": 4.00
  },
  {
    "molecule": "O=C1NC(=O)C2(CCCc3ccccc32)O1 (configuration not stated)",
    "censoring-qualifier": "=",
    "observed-value": 5.00
  },
  {
    "molecule": "COc1ccc2c(c1)C1(CC2)NC(=O)NC1=O (configuration not stated)",
    "censoring-qualifier": "=",
    "observed-value": 5.00
  },
  {
    "molecule": "S=C1NC(=S)C2(CCCc3ccccc32)N1 (configuration not stated)",
    "censoring-qualifier": "<",
    "observed-value": 4.00
  },
  {
    "molecule": "O=C1NC(=O)C2(CCSc3ccccc32)N1 (configuration not stated)",
    "censoring-qualifier": "=",
    "observed-value": 5.00
  },
  {
    "molecule": "O=C1NC(=O)C2(N1)c1ccccc1CCC2c1ccccc1 (configuration not stated)",
    "censoring-qualifier": "<",
    "observed-value": 4.00
  },
  {
    "molecule": "Cc1cc(C)c2c(c1C)OCCC21NC(=O)NC1=O (configuration not stated)",
    "censoring-qualifier": "=",
    "observed-value": 6.00
  },
  {
    "molecule": "CC1CCC2(NC(=O)NC2=O)c2ccccc21 (configuration not stated)",
    "censoring-qualifier": "=",
    "observed-value": 4.00
  },
  {
    "molecule": "O=C1NC(=O)C2(CCOc3ccc4ccccc4c32)N1 (configuration not stated)",
    "censoring-qualifier": "=",
    "observed-value": 5.00
  },
  {
    "molecule": "O=C1NC(=O)C2(Cc3ccccc3C2)N1",
    "censoring-qualifier": "<",
    "observed-value": 4.00
  },
  {
    "molecule": "O=C1NC(=O)C2(CCCC3CCCCC32)N1 (configuration not stated)",
    "censoring-qualifier": "<",
    "observed-value": 4.00
  },
  {
    "molecule": "COc1cccc2c3c(ccc12)C1(CCO3)NC(=O)NC1=O (configuration not stated)",
    "censoring-qualifier": "=",
    "observed-value": 7.00
  },
  {
    "molecule": "COc1ccc(F)c2c1CCCC21NC(=O)NC1=O (configuration not stated)",
    "censoring-qualifier": "<",
    "observed-value": 4.00
  },
  {
    "molecule": "CSc1ccc2c(c1)C1(CCO2)NC(=O)NC1=O (configuration not stated)",
    "censoring-qualifier": "=",
    "observed-value": 6.00
  },
  {
    "molecule": "O=C(O)C1CCSc2cc(Cl)c(Cl)cc21 (configuration not stated)",
    "censoring-qualifier": "=",
    "observed-value": 5.00
  },
  {
    "molecule": "O=C1NC(=O)C2(CCOc3c(F)cccc32)N1 (configuration not stated)",
    "censoring-qualifier": ">",
    "observed-value": 4.00
  },
  {
    "molecule": "Cc1cc2c(n1C)CCCC21NC(=O)NC1=O (configuration not stated)",
    "censoring-qualifier": "<",
    "observed-value": 4.00
  },
  {
    "molecule": "CC1CCc2ccccc2C12NC(=O)NC2=O (configuration not stated)",
    "censoring-qualifier": "=",
    "observed-value": 4.00
  },
  {
    "molecule": "O=C1NCC2(CCc3ccccc32)N1 (configuration not stated)",
    "censoring-qualifier": "<",
    "observed-value": 4.00
  },
  {
    "molecule": "O=C1NC(=O)C2(CCOc3c2ccc2cccnc32)N1 (configuration not stated)",
    "censoring-qualifier": "=",
    "observed-value": 5.00
  }
]
